This section presents molecules with their documented secreted FVIII-Gluc luciferase Z-score values.
Test system: HEK293 WT BDD-FVIII-Gluc
Test: secreted FVIII-Gluc luciferase Z-score vs DMSO control; higher = more FVIII-Gluc secretion
Conditions: 5 µM

Sample records with secreted FVIII-Gluc luciferase Z-score:
O=C(O)C1OC(O)C(O)C(O)C1O (centres undefined) ... 0.395
Nc1ccn([C@@H]2O[C@H](CO)[C@@H](OP(=O)(O)O)[C@H]2O)c(=O)n1 ... -0.278
CCCCC/C=C\C/C=C\C/C=C\C/C=C\CCCC(=O)O ... 0.604

Field: next molecule
Query :: Query (molecule): `COc1ccc2[nH]cc(CCNC(C)=O)c2c1` ; field requested: secreted FVIII-Gluc luciferase Z-score
Result :: 0.108
